Measurement Target: T1, TROP2 delta 27-56 on HEK cells (human, UniProt P09758 1-323)
T1 construct: Human TROP2 with residues 27-56 deleted, transiently transfected into HEK cells; also called TROP2 with 27-56 regions truncated
T1 chain: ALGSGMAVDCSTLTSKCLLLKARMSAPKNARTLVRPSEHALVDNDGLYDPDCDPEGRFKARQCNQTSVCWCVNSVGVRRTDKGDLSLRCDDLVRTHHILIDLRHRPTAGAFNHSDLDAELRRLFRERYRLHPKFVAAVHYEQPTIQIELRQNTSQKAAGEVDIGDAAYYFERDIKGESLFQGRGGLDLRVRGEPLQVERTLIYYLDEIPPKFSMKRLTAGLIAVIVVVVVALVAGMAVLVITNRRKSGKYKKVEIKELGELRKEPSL
Measurement Description: flow cytometry, 100 nM antibody, transiently transfected HEK cells, APC anti-human Fc
Endpoint: binding result

[[record]]
binder = "KD006 (antibody, human IgG1, V domains shown, also called anti-TROP2 sdAb KD006) VH: QVQLQESGGGLVQAGNSLRLSCVASVRTFSTKAMGWFRQAPGKEREFTAAISESGSTYYADSVKDRFTISRDNVKNTVYLQMNSLKPEDTAVYYCGVKWYSGSFDDTRSYDYWGQGTQVTVSS"
result = "binds"

